target: corticotropin releasing factor 1 receptor; experiment: cell-based or functional assay
Ends that are not written are not given here.

{"BINDER": "ZGPPISIDLPTWLLRKMIEIEKQEKEKQQAANNARLLARI (C-terminal amide) [SEQ ID NO 292]", "CRF1R EC50, nM": 1000}
{"BINDER": "ZGPPISIDLPHFLLRKMIEIEKQEKEKQQAANNRLLLDTI (C-terminal amide) [SEQ ID NO 219]", "CRF1R EC50, nM": 80.9}
{"BINDER": "DNPSLSIDLPLLLLRTLLELEKTQSQRERAEQNANIFANV-NH2 [SEQ ID NO 326]", "CRF1R EC50, nM": 1000}
{"BINDER": "ZGPPISIDLPFQLLRKMIEIEKQEKEKQQAANNRLLLATI (C-terminal amide) [SEQ ID NO 250]", "CRF1R EC50, nM": 138}
{"BINDER": "ZGPPISIDLPIYLLRKMIEIEKQEKEKQQAANNALLLATI (C-terminal amide) [SEQ ID NO 237]", "CRF1R EC50, nM": 1000}
{"BINDER": "ZGPPISIDLPLYLLRKMIEIEKQEKEKQQATTNARLLDTV (C-terminal amide) [SEQ ID NO 242]", "CRF1R EC50, nM": 358}
